Each entry below carries its recorded Pharbitis purpurea (efficacy in %).
Test system: Pharbitis purpurea
Assay: Post-emergence herbicidal action
Type: in vivo
Details: application rate 20 g/ha, rated visually after about 3 weeks vs untreated controls
Description: a. Post-Emergence Herbicidal Action and Crop Plant Compatibility Seeds of monocotyledonous and dicotyledonous weeds and crop plants were placed in sandy loam in plastic or wood-fiber pots, covered with soil and cultivated in a greenhouse under controlled growth conditions. 2 to 3 weeks after sowing, the test plants were treated at the one-leaf stage. […]
Give your result as the value with the unit written after it.

{"structure": "CCS(=O)(=O)NCCOC(=O)COc1ncccc1Oc1cc(-n2c(=O)cc(C(F)(F)F)n(C)c2=O)c(F)cc1Cl", "Pharbitis purpurea (efficacy in %)": "100%"}

Ask: Any idea what Pharbitis purpurea (efficacy in %) was measured for COCCOC(=O)COc1ncccc1Oc1cc(-n2c(=O)cc(C(F)(F)F)n(C)c2=O)c(F)cc1Br ?
Result: 100%

Ask: Any idea what Pharbitis purpurea (efficacy in %) was measured for Cn1c(C(F)(F)F)cc(=O)n(-c2cc(Sc3cccnc3OCC(=O)OCC#N)c(Cl)cc2F)c1=O ?
Result: 100%

Ask: Any idea what Pharbitis purpurea (efficacy in %) was measured for Cn1c(C(F)(F)F)cc(=O)n(-c2cc(Oc3cc(F)cnc3OCC(=O)OCc3ccccn3)c(Cl)cc2F)c1=O ?
Result: 100%

Ask: Any idea what Pharbitis purpurea (efficacy in %) was measured for CCS(=O)(=O)NCCOC(=O)COc1ncccc1Oc1cc(-n2c(=O)cc(C(F)(F)F)n(C)c2=O)c(F)cc1Br ?
Result: 100%

Ask: Any idea what Pharbitis purpurea (efficacy in %) was measured for Cn1c(C(F)(F)F)cc(=O)n(-c2cc(Oc3cc(F)cnc3OCC(=O)OCC#N)c(Cl)cc2F)c1=O ?
Result: 100%

Ask: Any idea what Pharbitis purpurea (efficacy in %) was measured for CCOC(COC(=O)COc1ncccc1Oc1cc(-n2c(=O)cc(C(F)(F)F)n(C)c2=O)c(F)cc1[N+](=O)[O-])OCC ?
Result: 100%

Ask: Any idea what Pharbitis purpurea (efficacy in %) was measured for Cn1c(C(F)(F)F)cc(=O)n(-c2cc(Sc3cccnc3OCC(=O)OCc3ccccn3)c(Cl)cc2F)c1=O ?
Result: 100%

Ask: Any idea what Pharbitis purpurea (efficacy in %) was measured for COCCOCCOC(=O)COc1ncc(F)cc1Sc1cc(-n2c(=O)cc(C(F)(F)F)n(C)c2=O)c(F)cc1Cl ?
Result: 100%

Ask: Any idea what Pharbitis purpurea (efficacy in %) was measured for Cn1c(C(F)(F)F)cc(=O)n(-c2cc(Sc3cccnc3OCC(=O)OC3COC3)c(Cl)cc2F)c1=O ?
Result: 100%

Ask: Any idea what Pharbitis purpurea (efficacy in %) was measured for Cn1c(C(F)(F)F)cc(=O)n(-c2cc(Oc3cccnc3OCC(=O)OC3COC3)c(Br)cc2F)c1=O ?
Result: 100%

Ask: Any idea what Pharbitis purpurea (efficacy in %) was measured for COCCOC(=O)COc1ncc(F)cc1Sc1cc(-n2c(=O)cc(C(F)(F)F)n(C)c2=O)c(F)cc1Cl ?
Result: 100%

----------
test system: Polygonum convolvulus; experiment: Post-emergence herbicidal action; type: in vivo; details: application rate 5 g/ha
measurement.label: Polygonum convolvulus (efficacy in %)
Use % as the unit, but write only the number.

Ask: Any idea what Polygonum convolvulus (efficacy in %) was measured for Cn1c(C(F)(F)F)cc(=O)n(-c2cc(Oc3cccnc3OCC(=O)OCC3CCCO3)c(Cl)cc2F)c1=O (stereo not shown) ?
Result: 100

Ask: Any idea what Polygonum convolvulus (efficacy in %) was measured for Cn1c(C(F)(F)F)cc(=O)n(-c2cc(Sc3cccnc3OCC(=O)OCC3CCCO3)c(Cl)cc2F)c1=O (stereo not shown) ?
Result: 100

Ask: Any idea what Polygonum convolvulus (efficacy in %) was measured for COCCOC(=O)CSc1ncccc1Sc1cc(-n2c(=O)cc(C(F)(F)F)n(C)c2=O)c(F)cc1Cl ?
Result: 100

Ask: Any idea what Polygonum convolvulus (efficacy in %) was measured for COCCOCCOC(=O)COc1ncccc1Oc1cc(-n2c(=O)cc(C(F)(F)F)n(C)c2=O)c(F)cc1Cl ?
Result: 100

Ask: Any idea what Polygonum convolvulus (efficacy in %) was measured for COCCCOC(=O)COc1ncccc1Oc1cc(-n2c(=O)cc(C(F)(F)F)n(C)c2=O)c(F)cc1Cl ?
Result: 100

Ask: Any idea what Polygonum convolvulus (efficacy in %) was measured for Cn1c(C(F)(F)F)cc(=O)n(-c2cc(Sc3cccnc3SCC(=O)OC3COC3)c(Cl)cc2F)c1=O ?
Result: 100

Ask: Any idea what Polygonum convolvulus (efficacy in %) was measured for COCCCOC(=O)CSc1ncccc1Sc1cc(-n2c(=O)cc(C(F)(F)F)n(C)c2=O)c(F)cc1Cl ?
Result: 100

----------
Each entry below carries its recorded Zea mays (efficacy in %).
test system: Zea mays; assay: Pre-emergence crop plant compatibility; type: in vivo; details: application rate 20 g/ha
Use % as the unit, but write only the number.

{"compound": "Cn1c(C(F)(F)F)cc(=O)n(-c2cc(Oc3cccnc3OCC(=O)OC[Si](C)(C)C)c(Cl)cc2F)c1=O", "experimental.value": 0}

Ask: Any idea what Zea mays (efficacy in %) was measured for Cn1c(C(F)(F)F)cc(=O)n(-c2cc(Oc3cccnc3OCC(=O)OCCOCc3ccccc3)c(Cl)cc2F)c1=O ?
Result: 0

Ask: Any idea what Zea mays (efficacy in %) was measured for Cn1c(C(F)(F)F)cc(=O)n(-c2cc(Oc3cccnc3OCC(=O)OCc3ccc(C(F)(F)F)nc3)c(Cl)cc2F)c1=O ?
Result: 0

----------
system: Veronica persica; assay: Post-emergence herbicidal action; assay type: in vivo; conditions: application rate 5 g/ha
measurement.label: Veronica persica (efficacy in %)
Use % as the unit, but write only the number.

Field: example entries. Status: answers known.
{"molecule": "Cn1c(C(F)(F)F)cc(=O)n(-c2cc(Oc3cccnc3OCC(=O)OCc3ccncc3)c(Cl)cc2F)c1=O", "Veronica persica (efficacy in %)": 100}
{"molecule": "Cn1c(C(F)(F)F)cc(=O)n(-c2cc(Oc3cccnc3OCC(=O)OCCOC(F)(F)F)c(Cl)cc2F)c1=O", "Veronica persica (efficacy in %)": 100}
{"molecule": "Cn1c(C(F)(F)F)cc(=O)n(-c2cc(Oc3cccnc3OCC(=O)OCC3NC(=O)NC3=O)c(Cl)cc2F)c1=O (stereo not drawn)", "Veronica persica (efficacy in %)": 100}

Ask: Any idea what Veronica persica (efficacy in %) was measured for Cn1c(C(F)(F)F)cc(=O)n(-c2cc(Oc3cccnc3OCC(=O)OCC3CCCO3)c(Cl)cc2F)c1=O (stereo not drawn) ?
Result: 100

Ask: Any idea what Veronica persica (efficacy in %) was measured for Cn1c(C(F)(F)F)cc(=O)n(-c2cc(Oc3cccnc3OCC(=O)OCC#N)c(Cl)cc2F)c1=O ?
Result: 90

Ask: Any idea what Veronica persica (efficacy in %) was measured for CSCCOC(=O)COc1ncccc1Oc1cc(-n2c(=O)cc(C(F)(F)F)n(C)c2=O)c(F)cc1Cl ?
Result: 100

Ask: Any idea what Veronica persica (efficacy in %) was measured for Cn1c(C(F)(F)F)cc(=O)n(-c2cc(Oc3cccnc3OCC(=O)OCC3CCOC3)c(Cl)cc2F)c1=O (stereo not drawn) ?
Result: 100

Ask: Any idea what Veronica persica (efficacy in %) was measured for Cn1c(C(F)(F)F)cc(=O)n(-c2cc(Oc3cccnc3OCC(=O)OC[Si](C)(C)C)c(Cl)cc2F)c1=O ?
Result: 100

Ask: Any idea what Veronica persica (efficacy in %) was measured for Cn1c(C(F)(F)F)cc(=O)n(-c2cc(Oc3cccnc3OCC(=O)OCC3OCCO3)c(Cl)cc2F)c1=O ?
Result: 100

----------
Each entry below carries its recorded Alopecurus myosuroides (efficacy in %).
test system: Alopecurus myosuroides; test: Pre-emergence herbicidal action; format: in vivo; conditions: application rate 20 g/ha
Give your result as the value with the unit written after it.

Field: example entries. Status: answers known.
{"molecule": "Cn1c(C(F)(F)F)cc(=O)n(-c2cc(Oc3cccnc3OCC(=O)OCC3NC(=O)NC3=O)c(Cl)cc2F)c1=O (stereo not shown)", "Alopecurus myosuroides (efficacy in %)": "90%"}
{"molecule": "Cn1c(C(F)(F)F)cc(=O)n(-c2cc(Oc3cccnc3OCC(=O)OCC3OCCO3)c(Cl)cc2F)c1=O", "Alopecurus myosuroides (efficacy in %)": "80%"}
{"molecule": "Cn1c(C(F)(F)F)cc(=O)n(-c2cc(Oc3cccnc3OCC(=O)OCCOCc3ccccc3)c(Cl)cc2F)c1=O", "Alopecurus myosuroides (efficacy in %)": "90%"}

Ask: Any idea what Alopecurus myosuroides (efficacy in %) was measured for Cn1c(C(F)(F)F)cc(=O)n(-c2cc(Oc3cccnc3OCC(=O)OCCS(C)(=O)=O)c(Cl)cc2F)c1=O ?
Result: 90%
